Sourced from the supplement of paper PMC10724198

# System: Saccharomyces cerevisiae
# TEST_DESCRIPTION: protein stability index of tFT-peptide fusion (C-terminal peptide) (PSI (0-1 scale)); higher = more stable (slower turnover)
# CONDITION_DETAILS: genetic background: wild type; temperature: 30 C
RECORDED_ENDPOINT: protein stability index

seq_text="ESIVDFVERHED [IMO32 C-terminal 12 aa]" target_or_test_system="Saccharomyces cerevisiae" recorded_endpoint="protein stability index" value=0.691
seq_text="ARLDKSLTFEDQ [RIM20 C-terminal 12 aa]" target_or_test_system="Saccharomyces cerevisiae" recorded_endpoint="protein stability index" value=0.699
seq_text="IRSRGRLKEVYF [SLX5 C-terminal 12 aa]" target_or_test_system="Saccharomyces cerevisiae" recorded_endpoint="protein stability index" value=0.686
seq_text="EVALAPSSNMIF [YKL083W C-terminal 12 aa]" target_or_test_system="Saccharomyces cerevisiae" recorded_endpoint="protein stability index" value=0.713
seq_text="LNAFQHPIVEFQ [YEL028W C-terminal 12 aa]" target_or_test_system="Saccharomyces cerevisiae" recorded_endpoint="protein stability index" value=0.69
seq_text="GIMVSPMKTNQR [SWI5 C-terminal 12 aa]" target_or_test_system="Saccharomyces cerevisiae" recorded_endpoint="protein stability index" value=0.699
seq_text="RHRKSEDRSLEA [ATR2 C-terminal 12 aa]" target_or_test_system="Saccharomyces cerevisiae" recorded_endpoint="protein stability index" value=0.703
seq_text="LSAGFGIGEFML [YGR079W C-terminal 12 aa]" target_or_test_system="Saccharomyces cerevisiae" recorded_endpoint="protein stability index" value=0.692
seq_text="QKNKKRKFSDTS [RNT1 C-terminal 12 aa]" target_or_test_system="Saccharomyces cerevisiae" recorded_endpoint="protein stability index" value=0.701
seq_text="WAVGGVELTTDI [GCN1 C-terminal 12 aa]" target_or_test_system="Saccharomyces cerevisiae" recorded_endpoint="protein stability index" value=0.705
seq_text="KKKDASQEESLI [VMA2 C-terminal 12 aa]" target_or_test_system="Saccharomyces cerevisiae" recorded_endpoint="protein stability index" value=0.707
seq_text="ASDEPSRKKNRR [SSN3 C-terminal 12 aa]" target_or_test_system="Saccharomyces cerevisiae" recorded_endpoint="protein stability index" value=0.704
seq_text="GKWYCDDCKKKL [PHO23 C-terminal 12 aa]" target_or_test_system="Saccharomyces cerevisiae" recorded_endpoint="protein stability index" value=0.717
seq_text="STFSIVSSISLW [YPL044C C-terminal 12 aa]" target_or_test_system="Saccharomyces cerevisiae" recorded_endpoint="protein stability index" value=0.665
seq_text="GLSPIRYFIPQH [YNL114C C-terminal 12 aa]" target_or_test_system="Saccharomyces cerevisiae" recorded_endpoint="protein stability index" value=0.681
seq_text="GPCVDALLSLSE [VPS9 C-terminal 12 aa]" target_or_test_system="Saccharomyces cerevisiae" recorded_endpoint="protein stability index" value=0.716
seq_text="ESIEELLRKTLE [ZNG1 C-terminal 12 aa]" target_or_test_system="Saccharomyces cerevisiae" recorded_endpoint="protein stability index" value=0.735
seq_text="DKKLARAGNNAI [CUE3 C-terminal 12 aa]" target_or_test_system="Saccharomyces cerevisiae" recorded_endpoint="protein stability index" value=0.769
seq_text="ALNRSAIIKDDK [DDP1 C-terminal 12 aa]" target_or_test_system="Saccharomyces cerevisiae" recorded_endpoint="protein stability index" value=0.708
seq_text="MMAVDTDVDMDA [YPL071C C-terminal 12 aa]" target_or_test_system="Saccharomyces cerevisiae" recorded_endpoint="protein stability index" value=0.673
seq_text="ACHMAKPLKLPT [YHR032C-A C-terminal 12 aa]" target_or_test_system="Saccharomyces cerevisiae" recorded_endpoint="protein stability index" value=0.673
seq_text="ELTKALDLLNSI [VTA1 C-terminal 12 aa]" target_or_test_system="Saccharomyces cerevisiae" recorded_endpoint="protein stability index" value=0.694
seq_text="KNLWMRENEITI [HES1 C-terminal 12 aa]" target_or_test_system="Saccharomyces cerevisiae" recorded_endpoint="protein stability index" value=0.71
seq_text="KFETPGEYKKRI [LCL3 C-terminal 12 aa]" target_or_test_system="Saccharomyces cerevisiae" recorded_endpoint="protein stability index" value=0.712
seq_text="AITSAQELLDSK [RBL2 C-terminal 12 aa]" target_or_test_system="Saccharomyces cerevisiae" recorded_endpoint="protein stability index" value=0.72
seq_text="VTFLVFANLRLW [YBR223W-A C-terminal 12 aa]" target_or_test_system="Saccharomyces cerevisiae" recorded_endpoint="protein stability index" value=0.575
seq_text="LPHFSHLHVHHD [YHR056W-A C-terminal 12 aa]" target_or_test_system="Saccharomyces cerevisiae" recorded_endpoint="protein stability index" value=0.719
seq_text="FKCVHTPCNVYI [YER078W-A C-terminal 12 aa]" target_or_test_system="Saccharomyces cerevisiae" recorded_endpoint="protein stability index" value=0.665
seq_text="PEVIDTRKDNSN [COX11 C-terminal 12 aa]" target_or_test_system="Saccharomyces cerevisiae" recorded_endpoint="protein stability index" value=0.696
seq_text="LVHIKMENGIVS [IZH2 C-terminal 12 aa]" target_or_test_system="Saccharomyces cerevisiae" recorded_endpoint="protein stability index" value=0.693
seq_text="ELERDITISREY [MIP1 C-terminal 12 aa]" target_or_test_system="Saccharomyces cerevisiae" recorded_endpoint="protein stability index" value=0.698
seq_text="SFNEVVKEVQAL [NHP2 C-terminal 12 aa]" target_or_test_system="Saccharomyces cerevisiae" recorded_endpoint="protein stability index" value=0.692
seq_text="DHIPLLTEFKIL [NGL1 C-terminal 12 aa]" target_or_test_system="Saccharomyces cerevisiae" recorded_endpoint="protein stability index" value=0.188
seq_text="TTRYAKEMNIIS [HIR2 C-terminal 12 aa]" target_or_test_system="Saccharomyces cerevisiae" recorded_endpoint="protein stability index" value=0.705
seq_text="TFEELWNGVEGI [ARH1 C-terminal 12 aa]" target_or_test_system="Saccharomyces cerevisiae" recorded_endpoint="protein stability index" value=0.682
seq_text="REITKCKQIFHK [PTR3 C-terminal 12 aa]" target_or_test_system="Saccharomyces cerevisiae" recorded_endpoint="protein stability index" value=0.686
seq_text="EEFLTLLGRRSI [FOL2 C-terminal 12 aa]" target_or_test_system="Saccharomyces cerevisiae" recorded_endpoint="protein stability index" value=0.723
